# literature pull: UniProt:P50406 Ki

Below: 5 molecules and their reported Ki.
[[record]]
molecule = "c1ccc(C2CCN(CCCCn3c4ccccc4c4ccccc43)CC2)cc1"
reported_endpoint = "Ki"
result = "1430 nM"

[[record]]
molecule = "O=S(=O)(Nc1ccc(C2CNC2)cc1)c1cccc(C(F)(F)F)c1"
reported_endpoint = "Ki"
result = "1 to 10 nM"

[[record]]
molecule = "CC1CN(Cc2ccc3[nH]nc(S(=O)(=O)c4cccc5ccccc45)c3c2)CC(C)N1 (centres unmarked)"
reported_endpoint = "Ki"
result = "0.01 to 10 nM"

[[record]]
molecule = "CNCCOc1cc(F)cc2c(S(=O)(=O)c3cccc4ccccc34)n[nH]c12"
reported_endpoint = "Ki"
result = "0.01 to 10 nM"

[[record]]
molecule = "CCN(C)CCOc1ccc2[nH]nc(S(=O)(=O)c3cccc4ccccc34)c2c1"
reported_endpoint = "Ki"
result = "0.01 to 10 nM"


Req: Item under review: O=S(=O)(c1ccccc1)n1ncc2c(OCCNC3CCOCC3)cccc21 . Reported Ki?
Resp: 6 nM

Req: Item under review: O=S(=O)(c1cccc2ccccc12)c1n[nH]c2ccc(OCCCN3CCCCC3)cc12 . Reported Ki?
Resp: 0.01 to 10 nM

Req: Item under review: O=S(=O)(c1cccc2ccccc12)c1nn(Cc2cccc(Cl)c2)c2c(OCCCN3CCCC3)cccc12 . Reported Ki?
Resp: 11 to 25 nM
